The measured values listed here are drawn from PubChem BioAssay.

# assay: blockers of RIG-like receptor reporter activation – cell-based, Sendai virus stimulus, luciferase, 10K MLSCN set, TLR/RLR signaling modifier project, primary screen (AID 602276);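 note: firefly luciferase from ISG56 promoter only with Renilla not read in this screen; 0% = Sendai virus plus DMSO and 100% = medium plus DMSO without virus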
# details: HEK293 RL24 IRF3 luciferase reporter, at 10 µM, stronger effect = higher value
inhibition values, listed per item
Numbers only; they are read as %.

Examples from the recorded data:
CN1CCN(c2ncnc3c2cnn3-c2ccc(Cl)cc2)CC1	15.5
CCn1cc(C2=NOC(C(=O)Nc3c(C)nn(Cc4ccc(F)cc4)c3C)C2)c(C)n1 (configuration not stated)	12.3
COCCNC(=S)c1ccc(OC)cc1	4.72
O=C(Nc1ccc(N2C(=O)C3C4C=CC(C4)C3C2=O)cc1)Nc1cccnc1 (configuration not stated)	7.37
O=C(O)Cn1cc(C(=O)c2ccco2)c2ccccc21	0.251

Prompt: Any idea what inhibition was measured for `CCOC(=O)c1[nH]c(C)c(C(=O)Nc2ccc(C)cc2C)c1C` ?
Completion: 1.87

Prompt: Now this one: `COc1ccc2c(c1)CCc1c(C(=O)NCc3cccnc3)noc1-2`
Completion: -37.2

Prompt: Try the molecule `Cc1nonc1NC(=O)c1ccccc1Br`
Completion: 12

Prompt: Param item: `Fc1ccc(-c2nnc(CN3CCN(c4ncc(C(F)(F)F)cc4Cl)CC3)o2)cc1`
Completion: 8.36

Prompt: `O=C(c1cccnc1NCc1ccccc1)N1CCOCC1` , same question.
Completion: -13.7

Prompt: And `Cc1cc(C(=O)CSc2nnc(-c3ccccc3)n2C)c(C)n1C` ?
Completion: -0.894

Prompt: Same question, `CSc1nc2ccc(S(=O)(=O)N3CCOCC3)cc2s1` this time
Completion: 17.9

---

# assay: TLR3 IRF3 reporter activation blockers – cell-based, poly I:C stimulus, luciferase, 10K MLSCN set, primary screen (AID 602277)
# details: HEK293-TLR3 RL24 IRF3 luciferase reporter, at 10 µM
Activity calls are given as the source filed them.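 Rule for the calls: active = inhibition of the reporter signal at or above 50%; inactive = inhibition below 50%.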
Entry note: the call must match one of True = active, False = inactive

// below: answered compounds
CCc1cccc(NC(=O)CN(C)S(=O)(=O)c2cccc3nsnc23)c1	False
Cc1ccc(CN2C(=O)CCC2C(=O)NCCCN2CCCC(C)C2)cc1 (centres undefined)	False
CC(=O)c1c(C)[nH]c(C(=O)NC2=NCCS2)c1C	False
Cc1ccc(S(=O)(=O)N2CCN(C(=O)N3CCOCC3)C2C)cc1 (centres undefined)	False

Prompt: Query: recorded result category for `COc1ccc(C(=O)OCC(=O)NCc2ccco2)cc1OC` in this test
Completion: False

Prompt: Next up: CCC(=O)c1ccc(OCC(O)CN2CCN(S(=O)(=O)N3CCCCC3)CC2)cc1 (centres undefined)
Completion: False

Prompt: Likewise for `NC(=O)c1ccsc1NC(=O)COC(=O)Cc1ccsc1` ?
Completion: False

Prompt: And `O=C(Nc1cccc(F)c1)c1cccc(S(=O)(=O)N2CCOCC2)c1` ?
Completion: True

Prompt: Would you mind doing `Cn1nc(-c2ccc(N3CCCCC3)c(NC(=O)c3ccco3)c2)c2ccccc2c1=O` as well?
Completion: True

Prompt: One more compound: `O=C(CS(=O)(=O)c1cn(Cc2ccc(Cl)cc2)c2ccccc12)N1CCOCC1`
Completion: False

Prompt: Follow-up item: Cc1cn(C2CC3OCC3O2)c(=O)[nH]c1=O (centres undefined)
Completion: False

Prompt: Try this compound next: `FC(F)Sc1nnc(-c2cccs2)n1-c1ccccc1`
Completion: False

Prompt: Continue with `CC(=O)Nc1ccc(Cl)cc1C(=O)O`
Completion: False

Prompt: Could you do the same for `COC(=O)c1ccc2c(=O)n(NC(C)=O)c(=S)[nH]c2c1` , please?
Completion: False

Prompt: Repeat with O=C(O)C1CCCCC1C(=O)Nc1ccccn1 (centres undefined)
Completion: False

Prompt: Here is the next compound: `Cc1cccc(-n2ncc3c(NCc4cccs4)ncnc32)c1`
Completion: False

Prompt: Now give it for `O=C(O)c1ccc(S(=O)(=O)Cc2ccccc2)cc1` too.
Completion: False

Prompt: How about this compound: `CCOC(=O)c1[nH]c(C)c(C(=O)N(C)C)c1C`
Completion: True

Prompt: Param item: `COc1ccc(CC(=O)NCc2cccs2)cc1`
Completion: False

Prompt: Also `O=C(c1cccc(Cl)c1)N1CCN(Cc2ccncc2)CC1` , if possible.
Completion: False

Prompt: Same lookup for `Cc1cccc(OCC(=O)Nc2ccc(N3CCCC3)cc2)c1C` , please.
Completion: False

Prompt: Another compound to check: `CNC(=O)c1ccc2nc(NC(C)=O)sc2c1`
Completion: False

Prompt: Param item: CCC(C)NC(=O)c1cc(-c2ccc(OC)cc2)on1 (centres undefined)
Completion: False

Prompt: Then `COc1cccc(OC)c1C(=O)N1CCN(S(=O)(=O)c2ccccc2)CC1` ?
Completion: False

---

# target.of.assay: Muscarinic acetylcholine receptor M4 (Homo sapiens) (UniProt P08173)
# Sequence (P08173 whole entry, looked up): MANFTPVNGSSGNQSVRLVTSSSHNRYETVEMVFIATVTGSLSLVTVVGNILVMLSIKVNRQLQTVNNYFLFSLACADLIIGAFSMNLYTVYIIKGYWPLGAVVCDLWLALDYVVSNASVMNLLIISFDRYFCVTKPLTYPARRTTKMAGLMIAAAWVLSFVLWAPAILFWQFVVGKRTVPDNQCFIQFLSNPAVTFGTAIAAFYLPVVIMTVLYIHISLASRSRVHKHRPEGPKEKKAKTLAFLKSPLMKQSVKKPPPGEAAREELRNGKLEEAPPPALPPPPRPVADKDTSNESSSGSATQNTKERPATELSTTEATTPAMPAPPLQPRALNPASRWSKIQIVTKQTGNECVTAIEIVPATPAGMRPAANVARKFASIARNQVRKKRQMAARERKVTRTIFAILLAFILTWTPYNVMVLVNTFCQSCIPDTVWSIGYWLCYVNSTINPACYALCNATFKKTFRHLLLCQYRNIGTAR
# assay: M4-linked GIRK flux change, two-sided – cell-based, HEK293 M4/GIRK, thallium flux, BTC-AM, M4 allosteric agonist project, primary screen (AID 625);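 note: thallium influx through GIRK channels coupled to M4 in HEK293 cells with BTC-AM dye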
# details: at 10 µM, actives lie on both sides
compounds and their reported fluorescence slope
Quick one: just the number, no unit, thanks!

Would you please look over these solved cases?
COC(=O)C1CCN(C(=O)CSc2nnc(-c3ccncc3)o2)CC1	0.0106
COc1ccc(C2CC(c3ccc(Cl)cc3)Nc3nc(NC(=O)c4ccco4)nn32)cc1 (stereo unspecified)	0.00611
O=C(Nc1ccccc1)N(Cc1cccnc1)Cc1ccco1	0.00427
COC(=O)c1cc(-c2c(C)nn(-c3ccccc3)c2C)n[nH]1	0.00494
COc1cccc(OC)c1C(=O)Nc1ccc(CN2CCCCC2)cc1	0.00659
Cc1ccc(NC(=O)CS(=O)CC(=O)NCC2CCCO2)cc1 (stereo unspecified)	0.00727
Cn1c(=O)c2c(nc(SCCCO)n2Cc2ccccc2Cl)n(C)c1=O	0.00759
CC(=O)N1CCc2cc(S(=O)(=O)CCC(=O)N3CCN(c4ccccn4)CC3)ccc21	0.0102

Prompt: Item `CCCCc1cc(=O)oc2c(CN3CCCC3)c(O)c(Cl)cc12` has what recorded fluorescence slope?
Completion: 0.00532

Prompt: `COC(=O)COc1ccc(C(=O)OC)cc1` , same question.
Completion: 0.00492

Prompt: Request: CSc1cccc(NC(=O)C2CCCN2S(=O)(=O)c2ccc3c(c2)CCC(=O)N3)c1 (stereo unspecified)
Completion: 0.00486

Prompt: Now the same for `O=C(O)c1oc2ccccc2c1-n1cccc1`
Completion: 0.00514

Prompt: Same thing, different compound: `COC(=O)c1c(C)oc2ccc(NS(=O)(=O)c3cccs3)cc12`
Completion: 0.0032

---

Measured nuclei count values are reported for all entries that follow.
# assay: reduction of polyQ htt aggregates in cells – imaging, exon1htt(103Q)mCFP cells, high-content imaging, primary screen (AID 483);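 note: compound exposure lasted 3 days before fixation; percent of the per-plate median nuclei count of sample wells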
# details: exon1htt(103Q)mCFP cell line, aggregate imaging, at 2 µM; measured here: cell count, toxicity
Please state the figure in %; there is no need to write the unit.

Look over these answered cases.
CC(=O)c1c(C)[nH]c(C(=O)NC2=NCCS2)c1C	61.1
Oc1c(Cl)cc(Cl)c2c1NCCC2	100
Cc1cc(S(=O)(=O)N2CCN(c3ccccc3C)CC2)ccc1F	103
CCCCOC(=O)c1cccc(NC(=O)CC)c1	97.1
Cc1ccc2c(c1)NC(=O)C(CC(=O)NCCCN1CCN(c3cc(Cl)ccc3C)CC1)O2 (stereo not given)	82.6

// switching to the query compound
Prompt: // nuclei count lookup, key: `O=C(Nc1cccc(NC(=O)c2ccco2)c1)c1ccc2c(c1)OCO2`
Completion: 108

---

// nuclei count lookup, one value per entry
# assay: endothelial E-selectin expression blockers – imaging, HUVEC, immunofluorescence, MLSMR starter and 10KST1 sets, primary screen (AID 487);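 note: 100% = median nuclei count of all wells on the same plate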
# details: HUVEC TNFalpha-induced E-selectin immunofluorescence imaging, at 2 µM; measured here: cell number, toxicity
Answer shape: numeric part, then the unit.

Prompt: // returns reported nuclei count for input `O=C(C1CCN(c2nnc(-n3cccc3)s2)CC1)N1CCN(Cc2ccc3c(c2)OCO3)CC1`
Completion: 113%

Prompt: Also need COc1ccccc1C1/C(=C(/O)c2ccccc2)C(=O)C(=O)N1CC(C)C (stereo unspecified) , thanks.
Completion: 124%

Prompt: Same again, this time with `CN(C)C(=O)CN(C)S(=O)(=O)c1ccc(Cl)cc1`
Completion: 113%

Prompt: Same question for `Cc1ccc(C)c(-c2nc3ccc(N)cc3[nH]2)c1` please.
Completion: 100%

Prompt: Likewise for O=C1c2ccccc2NC(c2cccc(F)c2)N1Cc1ccco1 (stereo unspecified) ?
Completion: 107%

Prompt: Could you do the same for `Cc1cc(S(=O)(=O)N2CCN(c3ncccn3)CC2)ccc1-n1cnnn1` , please?
Completion: 149%

---

Reported cell count by item:
# assay: inhibitors of TNFa-induced NFkB p65 translocation, primary screen, imaging, HUVEC, MLSMR starter and 10KST1 sets (AID 438);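 note: compound added about 3h40 before a 20 min TNFalpha stimulation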
# details: HUVEC TNFa-induced p65 nuclear translocation; measured here: nuclei count (cytotoxicity indicator), at 2.08 µM
Respond numerically, and do not add a unit to the figure.

O=C(Nc1ccc(N2C(=O)C3C4C=CC(C4)C3C2=O)cc1)Nc1cccnc1 (stereo unspecified)	426
CSc1nnc(-c2nnc(SC)n2-c2ccccc2)n1-c1ccccc1	879
CC(NO)C(C)(C)NO (stereo unspecified)	331
O=C(C1CCN(S(=O)(=O)Cc2ccccc2)CC1)N1CCN(c2ncccn2)CC1	354
COC(=O)c1ccc(CNC(=O)COc2ccccc2Br)o1	712

Prompt: Which cell count value belongs to `COc1ccc(CC(=O)Nc2c3c(nn2-c2cccc(Cl)c2)CS(=O)(=O)C3)cc1` ?
Completion: 785

Prompt: Another compound to check: CN(Cc1ccc(-n2cccn2)cc1)C(=O)c1cnn2c1NC(c1ccco1)CC2C(F)(F)F (stereo unspecified)
Completion: 326

Prompt: Follow-up entry: `Cc1ccc(S(=O)(=O)N2CCN(C(=O)c3cc(=O)[nH]c4ccccc34)CC2)c(C)c1`
Completion: 539

Prompt: Please give the result for `Cc1ccc(-c2nc3cc(N)ccc3o2)cc1` too.
Completion: 463

Prompt: And the next one, `COc1ccc(C(=O)OCC(=O)NCc2ccco2)cc1OC` ?
Completion: 573

Prompt: What do you get for `C=CCSc1nnc(Cc2c(C)[nH]c3ccccc23)o1` ?
Completion: 800
